Here the recorded EC50 is given for each entry.
# System: U2OS_Bim cells
# ASSAY_NOTES: Apoptosis inhibition assay (Bim-induced apoptosis, cell viability by ATP level)
# Assay type: cell-based
# COND: U2OS_Bim cells; means of duplicates; numbering of Tables 4a/4b; read-out: EC50

{"columns": ["MOLECULE", "TESTED_ON", "EC50"],
 "data": [
  ["Cc1cc(-c2cnc(OCc3ccc4c(cnn4C)c3)c(F)c2)nc(S(=O)(=O)CCC(OCc2ccccc2F)c2ccccc2)n1 (stereo not shown)", "U2OS_Bim cells", "< 100000 nM"],
  ["CCCCCCNC(=O)CCCS(=O)(=O)c1nc(-c2ccc(=O)n(Cc3ccc(OC)c(OC)c3)c2)cc(C(F)F)n1", "U2OS_Bim cells", "1 to 1000 nM"],
  ["CNS(=O)(=O)CCC[S+]([O-])c1nc(-c2ccc(=O)n(Cc3ccc(OC)c(OC)c3)c2)cc(C(F)F)n1 (stereo not shown)", "U2OS_Bim cells", "< 100000 nM"],
  ["Cc1ccc(-c2cc(C(F)(F)F)nc(S(C)(=O)=O)n2)cc1", "U2OS_Bim cells", "< 100000 nM"],
  ["COC(=O)c1cccc(-c2cc(C(F)(F)F)nc(S(C)(=O)=O)n2)c1", "U2OS_Bim cells", "< 100000 nM"],
  ["COc1ccc(Cn2cc(-c3cc(C(F)(F)F)nc(S(=O)(=O)CCCC(=O)N4CCCCC4)n3)ccc2=O)cc1OC", "U2OS_Bim cells", "1 to 1000 nM"],
  ["CCCCCS(=O)(=O)c1nc(-c2ccc(=O)n(Cc3ccc(OC)c(OC)c3)c2)cc(C(F)(F)F)n1", "U2OS_Bim cells", "1 to 1000 nM"]
]}

* * *

# Tested on: U2OS_Bim cells
# ASSAY_NOTES: Apoptosis inhibition assay (Bim-induced apoptosis, cell viability by ATP level)
# Format: cell-based
# COND: U2OS_Bim cells; means of duplicates; numbering of Tables 4a/4b; read-out: EC50
Measured EC50, listed per entry for reference.

{"columns": ["MOLECULE", "EC50"],
 "data": [
  ["CS(=O)(=O)c1nc(-c2ccc(=O)n(Cc3ccc(-c4ccccc4)cc3)c2)cc(C(F)(F)F)n1", "1 to 1000 nM"],
  ["CNC(=O)c1ccc(-c2cc(C(F)(F)F)nc(S(C)(=O)=O)n2)cc1", "1000 to 20000 nM"],
  ["C[S+]([O-])c1nc(-c2cccc(Oc3ccccc3)c2)cc(C(F)(F)F)n1 (stereo not shown)", "< 100000 nM"],
  ["CS(=O)(=O)c1nc(-c2ccc(C#N)cc2)cc(C(F)(F)F)n1", "< 100000 nM"],
  ["COC(=O)c1ccccc1-c1cc(C(F)(F)F)nc([S+](C)[O-])n1 (stereo not shown)", "1000 to 10000 nM"],
  ["COc1cc(Cl)c(Cn2cc(-c3cc(C(F)(F)F)nc(S(=O)(=O)CCCC(=O)N4CCOCC4)n3)ccc2=O)cc1OC", "1 to 1000 nM"],
  ["C[S+]([O-])c1nc(-c2ccc(=O)n(Cc3ccc(Cl)cc3F)c2)cc(C(F)(F)F)n1 (stereo not shown)", "1000 to 10000 nM"],
  ["Cc1cc(-c2cc(F)c(=O)n(Cc3ccc4c(cnn4C)c3)c2)nc(S(=O)(=O)CCC(OCc2ccccc2F)c2ccccc2)n1 (stereo not shown)", "1 to 1000 nM"],
  ["COc1ccc(Cn2cc(-c3cc(C(F)F)nc(S(C)(=O)=O)n3)ccc2=O)cc1C(F)(F)F", "1 to 1000 nM"],
  ["COc1ccc(Cn2cc(-c3cc(C)nc(S(=O)(=O)CCC(C)=O)n3)cc(F)c2=O)cc1F", "< 100000 nM"],
  ["Cc1cc(-c2cc(F)c(=O)n(CC3CCCCC3)c2)nc(S(=O)(=O)CCC(OCc2ccc(F)cc2F)c2ccccc2)n1 (stereo not shown)", "1000 to 10000 nM"],
  ["COc1ccc(Cn2cc(-c3cc(C(F)(F)F)nc(S(=O)(=O)CCC(OCc4ccccc4)c4ccccc4)n3)ccc2=O)cc1OC (stereo not shown)", "1 to 1000 nM"],
  ["C[S+]([O-])c1nc(-c2ccc(C(=O)O)cc2)cc(C(F)(F)F)n1 (stereo not shown)", "< 100000 nM"],
  ["COc1ccc(-c2cc(C(F)(F)F)nc([S+](C)[O-])n2)cc1 (stereo not shown)", "1000 to 20000 nM"],
  ["COc1ccc(Cn2cc(-c3nc(S(=O)(=O)CCC(OCc4ccccc4)c4ccccc4)nc4ccccc34)ccc2=O)cc1OC (stereo not shown)", "1 to 1000 nM"],
  ["C#CCOc1cccc(Cn2cc(-c3cc(C(F)(F)F)nc(S(C)(=O)=O)n3)ccc2=O)c1", "1 to 1000 nM"]
]}

* * *

# Tested on: U2OS_Bim cells
# ASSAY_NOTES: Apoptosis inhibition assay (Bim-induced apoptosis, cell viability by ATP level)
# Assay type: cell-based
# COND: U2OS_Bim cells; means of duplicates; numbering of Tables 4a/4b; read-out: EC50
pEC50: −log10 of the molar value.
Let's look at some compounds and their measured pEC50.
TEST_READOUT: pEC50

{"columns": ["COMPOUND", "READOUT_VALUE"],
 "data": [
  ["Cc1cc(-c2c[nH]c(=O)c(F)c2)nc(S(=O)(=O)CCC(OCc2ccccc2F)c2ccccc2)n1 (stereo not drawn) [Compound 325]", "5.00 to 6.00"],
  ["CCOc1cccc(Cn2cc(-c3cc(C)nc(S(=O)(=O)CCC(OCc4ccc(F)cc4F)c4ccccc4)n3)cc(F)c2=O)c1 (stereo not drawn) [Compound 311]", "6.00 to 9.00"],
  ["CS(=O)(=O)c1nc(-c2ccc(=O)n(Cc3ccc4c(c3)OCO4)c2)cc(C(F)(F)F)n1 [Compound 136]", "6.00 to 9.00"],
  ["COc1ccc(Cn2cc(-c3cc(C(F)F)nc(S(=O)(=O)c4cccc(N)c4)n3)ccc2=O)cc1OC [Compound 180]", "6.00 to 9.00"],
  ["COc1ccc(Cn2cc(-c3cc(C(C)(F)F)nc(S(C)(=O)=O)n3)ccc2=O)cc1OC [Compound 164]", "6.00 to 9.00"],
  ["COc1ccc(Cn2cc(-c3cc(C(F)F)nc(S(=O)(=O)CCC(OCc4ccccc4F)c4ccccc4)n3)ccc2=O)cc1F (stereo not drawn) [Compound 284]", "6.00 to 9.00"],
  ["Cc1cc(-c2cc(F)c(=O)n(Cc3ccc4c(c3)OCO4)c2)nc(S(=O)(=O)CCC(Oc2cccnc2)c2ccccc2)n1 (stereo not drawn) [Compound 333]", "6.00 to 9.00"],
  ["CS(=O)(=O)c1nc(N=[N+]=[N-])cc(-c2cccs2)n1 [Compound 41]", "> 4.00"],
  ["CS(=O)(=O)c1nc(-c2cccc(F)c2)cc(C(F)(F)F)n1 [Compound 44]", "5.00 to 6.00"],
  ["C[S+]([O-])c1nc(-c2ccc[nH]c2=O)cc(C(F)(F)F)n1 (stereo not drawn) [Compound 81]", "> 4.00"],
  ["COc1ccc(Cn2cc(-c3cc(C(F)F)nc(S(C)(=O)=O)n3)cc(F)c2=O)cc1OC [Compound 165]", "6.00 to 9.00"],
  ["CS(=O)(=O)c1nc(-c2ccccc2C(=O)O)cc(C(F)(F)F)n1 [Compound 63]", "> 4.00"],
  ["Cc1cc(-c2cc(F)c(=O)n(Cc3ccc4c(c3)no[n+]4[O-])c2)nc(S(=O)(=O)CCC(OCc2ccccc2F)c2ccccc2)n1 (stereo not drawn) [Compound 323]", "6.00 to 9.00"],
  ["COc1ccc(Cn2cc(-c3cc(C)nc([S+]([O-])CCC(C)OCc4ccccc4F)n3)cc(F)c2=O)cc1F (stereo not drawn) [Compound 304]", "> 4.00"],
  ["COC(=O)c1ccccc1-c1cc(C(F)(F)F)nc(S(C)(=O)=O)n1 [Compound 58]", "> 4.00"]
]}

* * *

# Tested on: U2OS_Bim cells
# ASSAY_NOTES: Apoptosis inhibition assay (Bim-induced apoptosis, cell viability by ATP level)
# Assay type: cell-based
# COND: U2OS_Bim cells; estimated based on preliminary results; numbering of Tables 4a/4b; read-out: EC50
pEC50: −log10 of the molar value.

{"columns": ["COMPOUND", "TESTED_ON", "pEC50"],
 "data": [
  ["CCc1ccc(Cn2cc(-c3cc(C(F)(F)F)nc(S(C)(=O)=O)n3)ccc2=O)cc1OC", "U2OS_Bim cells", "> 5.00"],
  ["COc1ccc(Cn2cc(-c3cc(-n4ccnc4)nc([S+](C)[O-])n3)ccc2=O)cc1OC (stereo not shown)", "U2OS_Bim cells", "> 5.00"],
  ["COc1ccc(Cn2cc(-c3cc(C(F)F)nc(S(=O)(=O)CCCO)n3)ccc2=O)cc1OC", "U2OS_Bim cells", "5.00 to 6.00"],
  ["COc1ccc(Cn2cc(-c3cc(-n4ccnc4)nc(S(C)(=O)=O)n3)ccc2=O)cc1OC", "U2OS_Bim cells", "> 5.00"]
]}

The origin of these recorded values is patent US11725000B2.
